test: self-splicing fitness, log relative to wild type (ln ratio); higher = more splicing; Tetrahymena group I intron in knt gene, E. coli kanamycin selection, DiMSum; sequences stand for … in CUCUCU…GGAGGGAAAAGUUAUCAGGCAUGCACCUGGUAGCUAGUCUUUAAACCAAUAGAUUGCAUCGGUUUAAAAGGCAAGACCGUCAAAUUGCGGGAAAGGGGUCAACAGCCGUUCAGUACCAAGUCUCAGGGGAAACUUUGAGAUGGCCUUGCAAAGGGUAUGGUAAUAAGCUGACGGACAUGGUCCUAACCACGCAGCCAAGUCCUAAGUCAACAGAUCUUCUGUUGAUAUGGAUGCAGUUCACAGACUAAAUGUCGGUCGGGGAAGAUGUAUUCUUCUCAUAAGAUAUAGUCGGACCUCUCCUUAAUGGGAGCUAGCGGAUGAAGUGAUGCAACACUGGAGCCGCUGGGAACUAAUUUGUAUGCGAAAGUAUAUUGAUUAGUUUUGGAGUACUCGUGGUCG; settings: 30 °C;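 note: selection with 25 µg/mL kanamycin versus none on LB agar overnight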

CONSTRUCT_SEQUENCE	self-splicing fitness (ln)
GUACAGCAAUAUUACGAAGU	-3.32
GAUCAGCAAUAUUACGGAGG	-3.86
GGACAGCAAUAUUACGUACC	-1.81
UCAAAGCAAUAUUACGUUUG	-3.43
UUACAGCAAUAUUACGUAUU	-2.89
ACCGAGCAAUAUUACGAAGA	-3.11
UCCGAGCAAUAUUACGAUUA	-1.94
AUCAAGCAAUAUUACGCAGA	-2.21

* * *

experiment: self-splicing fitness, log relative to wild type (ln ratio); higher = more splicing; Tetrahymena group I intron in knt gene, E. coli kanamycin selection, DiMSum; sequences stand for … in CUCUCU…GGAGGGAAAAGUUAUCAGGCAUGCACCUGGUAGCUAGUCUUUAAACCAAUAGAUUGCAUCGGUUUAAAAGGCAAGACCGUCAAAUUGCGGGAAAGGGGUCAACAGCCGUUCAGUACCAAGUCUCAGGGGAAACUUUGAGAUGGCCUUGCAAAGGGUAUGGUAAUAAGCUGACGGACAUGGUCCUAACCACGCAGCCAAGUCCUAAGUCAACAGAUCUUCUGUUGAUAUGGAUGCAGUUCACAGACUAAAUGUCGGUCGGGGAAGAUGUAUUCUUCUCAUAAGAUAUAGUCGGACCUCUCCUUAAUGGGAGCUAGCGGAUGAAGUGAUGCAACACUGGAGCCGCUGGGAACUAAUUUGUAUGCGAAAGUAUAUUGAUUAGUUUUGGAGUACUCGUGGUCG; details: 30 °C
Catalogue of self-splicing fitness (ln) values

CONSTRUCT_SEQUENCE	self-splicing fitness (ln)
ACAGAGCAAUAUUACGAACG	-2.76
GUACAGCAAUAUUACGUUAC	-3.89
UUCGAGCAAUAUUACGUUGG	-4.14
AUUUAGCAAUAUUACGACGC	-1.8
AAAAAGCAAUAUUACGCCUU	-0.374
UAUUAGCAAUAUUACGAGGA	-2.33
ACUAAGCAAUAUUACGCCCA	-0.779
CAUGAGCAAUAUUACGAAAA	-3.45

* * *

assay: self-splicing fitness, log relative to wild type (ln ratio); higher = more splicing; Tetrahymena group I intron in knt gene, E. coli kanamycin selection, DiMSum; sequences stand for … in CUCUCU…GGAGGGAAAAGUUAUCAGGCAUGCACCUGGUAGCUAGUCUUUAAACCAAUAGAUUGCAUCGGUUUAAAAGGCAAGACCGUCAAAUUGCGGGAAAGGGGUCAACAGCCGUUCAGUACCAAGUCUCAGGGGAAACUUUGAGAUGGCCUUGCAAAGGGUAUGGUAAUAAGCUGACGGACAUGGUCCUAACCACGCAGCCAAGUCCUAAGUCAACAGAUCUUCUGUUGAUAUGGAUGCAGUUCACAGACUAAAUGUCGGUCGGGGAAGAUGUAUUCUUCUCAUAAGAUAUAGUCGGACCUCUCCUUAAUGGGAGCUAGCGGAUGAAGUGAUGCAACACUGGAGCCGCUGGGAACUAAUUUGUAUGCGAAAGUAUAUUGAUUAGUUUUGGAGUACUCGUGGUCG; conditions: 30 °C
I would appreciate it if you labelled entries 1 (yes) when self-splicing fitness (ln) is -0.8 or higher, otherwise 0 (no).

CONSTRUCT_SEQUENCE	CLASS_NAME
GUCCAGCAAUAUUACGAAAU	1 (yes)
GUCGAGCAAUAUUACGGAUG	0 (no)
GCGUAGCAAUAUUACGAUAC	0 (no)
GCAGAGCAAUAUUACGAUUG	0 (no)
ACCGAGCAAUAUUACGGAUC	0 (no)
AUAGAGCAAUAUUACGACGC	1 (yes)
GGCAAGCAAUAUUACGUAUU	1 (yes)

* * *

test: self-splicing fitness, log relative to wild type (ln ratio); higher = more splicing; Tetrahymena group I intron in knt gene, E. coli kanamycin selection, DiMSum; sequences stand for … in CUCUCU…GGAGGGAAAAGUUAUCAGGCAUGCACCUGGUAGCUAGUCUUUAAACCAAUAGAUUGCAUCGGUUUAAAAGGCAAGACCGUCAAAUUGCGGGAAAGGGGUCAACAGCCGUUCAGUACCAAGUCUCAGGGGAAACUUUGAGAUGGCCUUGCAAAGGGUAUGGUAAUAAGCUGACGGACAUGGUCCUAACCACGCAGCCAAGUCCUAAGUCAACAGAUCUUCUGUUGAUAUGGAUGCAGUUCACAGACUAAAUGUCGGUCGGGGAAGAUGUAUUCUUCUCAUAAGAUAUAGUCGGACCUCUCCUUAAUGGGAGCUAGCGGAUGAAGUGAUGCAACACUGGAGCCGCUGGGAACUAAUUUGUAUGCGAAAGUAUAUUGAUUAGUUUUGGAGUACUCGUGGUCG; details: 30 °C
The class of a record is decided solely by its measured self-splicing fitness (ln); consult group 1 (below -2), group 2 (-2 to below -0.7), group 3 (-0.7 or more)

CONSTRUCT_SEQUENCE	CLASS_NAME
GGAUAGCAAUAUUACGCGGU	group 1
CGUCAGCAAUAUUACGCAGG	group 1
AUCAAGCAAUAUUACGCCGG	group 2
GACAAGCAAUAUUACGGUCG	group 2
UAAUAGCAAUAUUACGCGCU	group 3
UGGCAGCAAUAUUACGCUAG	group 2
AGUUAGCAAUAUUACGACAU	group 3
AUGAAGCAAUAUUACGGACA	group 3
GCCUAGCAAUAUUACGCUAA	group 2
ACUUAGCAAUAUUACGGGUC	group 1
CUAGAGCAAUAUUACGUCAG	group 3
CUCCAGCAAUAUUACGUUAU	group 1
AUAAAGCAAUAUUACGCACG	group 3
GUCAAGCAAUAUUACGUUUU	group 1
CGGGAGCAAUAUUACGAUGU	group 1

* * *

assay: self-splicing fitness, log relative to wild type (ln ratio); higher = more splicing; Tetrahymena group I intron in knt gene, E. coli kanamycin selection, DiMSum; sequences stand for … in CUCUCU…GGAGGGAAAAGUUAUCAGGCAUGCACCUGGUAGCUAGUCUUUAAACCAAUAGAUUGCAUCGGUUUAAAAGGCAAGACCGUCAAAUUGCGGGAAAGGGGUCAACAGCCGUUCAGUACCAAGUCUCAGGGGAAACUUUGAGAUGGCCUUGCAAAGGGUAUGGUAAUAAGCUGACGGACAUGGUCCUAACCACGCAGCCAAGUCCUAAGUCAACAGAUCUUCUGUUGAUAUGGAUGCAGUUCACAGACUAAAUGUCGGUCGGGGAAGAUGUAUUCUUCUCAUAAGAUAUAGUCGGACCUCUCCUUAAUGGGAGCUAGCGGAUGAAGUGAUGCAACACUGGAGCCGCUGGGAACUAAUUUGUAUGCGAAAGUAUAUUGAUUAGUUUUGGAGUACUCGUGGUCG; details: 30 °C
I would appreciate it if you labelled entries Condition met when self-splicing fitness (ln) is -3 or higher, otherwise Condition not met.

CONSTRUCT_SEQUENCE	CLASS_NAME
UACUAGCAAUAUUACGAAGG	Condition not met
CUGGAGCAAUAUUACGCGAG	Condition not met
UGGGAGCAAUAUUACGGUGU	Condition met
AUCAAGCAAUAUUACGUUUU	Condition met
AGUUAGCAAUAUUACGGGAG	Condition not met
UCGUAGCAAUAUUACGAUCG	Condition met
CAAAAGCAAUAUUACGCUUC	Condition not met
UGAAAGCAAUAUUACGCAGA	Condition met
CGUAAGCAAUAUUACGGCUG	Condition met
CGGAAGCAAUAUUACGGUUA	Condition met
CACGAGCAAUAUUACGAGAG	Condition not met
GAUGAGCAAUAUUACGCAAC	Condition met
CUCAAGCAAUAUUACGUAUA	Condition not met
GUGAAGCAAUAUUACGGUAU	Condition met
UGUAAGCAAUAUUACGCACC	Condition met
GGCAAGCAAUAUUACGGGGC	Condition met

* * *

experiment: self-splicing fitness, log relative to wild type (ln ratio); higher = more splicing; Tetrahymena group I intron in knt gene, E. coli kanamycin selection, DiMSum; sequences stand for … in CUCUCU…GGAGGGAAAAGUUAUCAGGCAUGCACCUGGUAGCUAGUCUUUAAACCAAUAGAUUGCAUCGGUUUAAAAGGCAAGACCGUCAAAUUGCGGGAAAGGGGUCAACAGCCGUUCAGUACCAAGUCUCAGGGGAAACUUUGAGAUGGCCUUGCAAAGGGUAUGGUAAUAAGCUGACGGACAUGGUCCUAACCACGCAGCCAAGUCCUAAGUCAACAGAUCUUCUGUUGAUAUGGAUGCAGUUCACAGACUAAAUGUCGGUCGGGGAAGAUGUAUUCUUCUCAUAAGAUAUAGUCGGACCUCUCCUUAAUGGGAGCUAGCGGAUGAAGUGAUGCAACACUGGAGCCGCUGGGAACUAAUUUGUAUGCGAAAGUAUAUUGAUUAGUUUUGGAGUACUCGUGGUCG; conditions: 37 °C
MEASUREMENT_TYPE: self-splicing fitness (ln)

CONSTRUCT_SEQUENCE	EXPERIMENTAL_RESULT
UACCAGCAAUAUUACGCUCC	-0.501
AGGUAGCAAUAUUACGCCUG	-0.212
GAGAAGCAAUAUUACGGUAA	-1.57
GACGAGCAAUAUUACGCUAA	-2.25
GAUUAGCAAUAUUACGCGAA	-1.44
CGGCAGCAAUAUUACGCUCA	-0.137
UGAUAGCAAUAUUACGGCUA	0.0243
GGAAAGCAAUAUUACGGCGA	-0.211
AUCCAGCAAUAUUACGGUCU	-0.109
ACCAAGCAAUAUUACGCAGU	-2.77
UCCUAGCAAUAUUACGAGUU	-1.24
CGAAAGCAAUAUUACGGUGC	-2.65
CUAGAGCAAUAUUACGCCUC	-2.88
CAGCAGCAAUAUUACGACUC	-0.00599
AUAAAGCAAUAUUACGUAGG	-1.51
AUAUAGCAAUAUUACGGCGA	-0.69
AAACAGCAAUAUUACGCGCG	-0.673
GACCAGCAAUAUUACGAUCA	-1.1
UUCCAGCAAUAUUACGUGGU	-2.08
AUGUAGCAAUAUUACGUAUA	-1.58
UCGUAGCAAUAUUACGUAGG	-0.631
GCUAAGCAAUAUUACGUUGC	-1.71
UCUAAGCAAUAUUACGUCUG	-1.18
CCUAAGCAAUAUUACGAACG	-0.478
GCUUAGCAAUAUUACGGAAA	-0.752
UUCCAGCAAUAUUACGGAAC	-3.19
GACUAGCAAUAUUACGGACC	-0.714
AUGGAGCAAUAUUACGUGUA	-3.04
UCCCAGCAAUAUUACGAUAU	-1.74
AACUAGCAAUAUUACGAUAU	-0.429
AUCGAGCAAUAUUACGCAAG	-1.72
UUCAAGCAAUAUUACGCUAG	-2.32
CGGAAGCAAUAUUACGGUCA	0.421
GAUAAGCAAUAUUACGACAC	0.0901

The measurements presented in this section are drawn from the supplement of paper PMC7877785.
